- System: 227483-062-R1-J1-PDC complex spheroids with HUVEC/MSC, viability;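 also: spheroids exposed to compounds for seven days before readout; percent of DMSO vehicle control luminescence as 100% viability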
- PROTOCOL_TEXT: Anticancer human tumor 227483-062-R1-J1-PDC patient-derived pancreatic carcinoma cell line growth inhibition [CLK]
- CONDITIONS_USED: second compound 10 µM; first compound 0.00949 µM; active compounds read low
RESULT_TYPE: viability, T/C (%)
Expressed in %, but write only the number.

Solved cases (5 shown):
[
  {
    "COMPOUND": "CC(C)CC(NC(=O)C(Cc1ccccc1)NC(=O)c1cnccn1)B(O)O (stereo unspecified) + CNC(=O)c1ccc(Nc2nc(OC3CCCC3)c3c(-c4ccc5nc(C)oc5c4)c[nH]c3n2)c(OC)c1",
    "TESTED_ON": "227483-062-R1-J1-PDC complex spheroids with HUVEC/MSC, viability",
    "MEASURED_NUMBER": 0.24
  },
  {
    "COMPOUND": "CC(C)CC(NC(=O)C(Cc1ccccc1)NC(=O)c1cnccn1)B(O)O (stereo unspecified) + CN1CCN(c2cc(C(=O)Nc3cc4cc(-c5cnn(C)c5)ccc4cn3)ccn2)CC1",
    "TESTED_ON": "227483-062-R1-J1-PDC complex spheroids with HUVEC/MSC, viability",
    "MEASURED_NUMBER": 0.37
  },
  {
    "COMPOUND": "NC(=O)C(=Cn1cnc(-c2cc(C(F)(F)F)cc(C(F)(F)F)c2)n1)c1cncnc1 + CN1CCN(c2cc(C(=O)Nc3cc4cc(-c5cnn(C)c5)ccc4cn3)ccn2)CC1",
    "TESTED_ON": "227483-062-R1-J1-PDC complex spheroids with HUVEC/MSC, viability",
    "MEASURED_NUMBER": 1.57
  },
  {
    "COMPOUND": "C=CC(=O)Nc1cc(Nc2nccc(-c3cn(C)c4ccccc34)n2)c(OC)cc1N(C)CCN(C)C + CNC(=O)c1ccc(Nc2nc(OC3CCCC3)c3c(-c4ccc5nc(C)oc5c4)c[nH]c3n2)c(OC)c1",
    "TESTED_ON": "227483-062-R1-J1-PDC complex spheroids with HUVEC/MSC, viability",
    "MEASURED_NUMBER": 38.4
  },
  {
    "COMPOUND": "NC(=O)C(=Cn1cnc(-c2cc(C(F)(F)F)cc(C(F)(F)F)c2)n1)c1cncnc1 + CNC(=O)c1ccc(Nc2nc(OC3CCCC3)c3c(-c4ccc5nc(C)oc5c4)c[nH]c3n2)c(OC)c1",
    "TESTED_ON": "227483-062-R1-J1-PDC complex spheroids with HUVEC/MSC, viability",
    "MEASURED_NUMBER": 40.6
  }
]

Next up:
Ask: Report viability, T/C for C=CC(=O)Nc1cc(Nc2nccc(-c3cn(C)c4ccccc34)n2)c(OC)cc1N(C)CCN(C)C + CN1CCN(c2cc(C(=O)Nc3cc4cc(-c5cnn(C)c5)ccc4cn3)ccn2)CC1 please.
Reply: 2.57

Origin of measurements: PubChem BioAssay AID2060623
